Target: T1, human PrRP receptor GPR10 (human, UniProt P49683 1-370)
T1 construct: whole, on cells; also called GPR10 human receptor transfected in CHO cells; human GPR10 receptor
T1 sequence (looked up): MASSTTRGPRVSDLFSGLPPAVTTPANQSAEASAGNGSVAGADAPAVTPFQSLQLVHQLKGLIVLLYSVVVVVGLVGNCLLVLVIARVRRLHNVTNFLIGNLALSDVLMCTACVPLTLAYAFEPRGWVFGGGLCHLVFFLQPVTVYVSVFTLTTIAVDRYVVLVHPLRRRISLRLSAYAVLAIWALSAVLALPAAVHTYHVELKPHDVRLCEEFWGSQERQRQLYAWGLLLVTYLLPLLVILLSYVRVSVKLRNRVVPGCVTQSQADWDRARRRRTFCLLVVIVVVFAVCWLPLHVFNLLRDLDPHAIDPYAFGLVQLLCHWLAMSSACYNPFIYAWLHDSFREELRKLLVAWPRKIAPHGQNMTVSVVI
Experiment: competition with 125I-human PrRP31, CHO cells with human GPR10
Square brackets hold non-standard residues; d marks the D form. * marks the point of attachment. 1Nal = N[C@@H](Cc1cccc2ccccc12)C(=O)O; Palmitoyl = CCCCCCCCCCCCCCCC(=O)*; PheCl2 = dichlorophenylalanine; Lauroyl = CCCCCCCCCCCC(=O)*; Nle = CCCC[C@H](N)C(=O)O
binders and their reported % of PrRP31

| binder | % of PrRP31 [%] |
| --- | --- |
| Palmitoyl-SRAHQHS[Nle]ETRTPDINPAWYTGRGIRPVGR[1Nal]-NH2 [analog no. 12] | 91 |
| Lauroyl-SRAHQHS[Nle]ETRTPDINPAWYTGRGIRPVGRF-NH2 [analog no. 6] | 327 |
| SRTHRHSMEIRTPDINPAWYASRGIRPVGRF ((N-palm)γ-E at the N-terminus (palmitoyl through gamma-glutamic acid); C-terminal amide) [analog no. 54] | 57 |
| Palmitoyl-SRAHQHS[Nle]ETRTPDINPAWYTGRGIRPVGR[PheCl2]-NH2 [analog no. 15] | 370 |
